Measured target: MAO-A (Rattus norvegicus)
Sequence (P21396 1-526): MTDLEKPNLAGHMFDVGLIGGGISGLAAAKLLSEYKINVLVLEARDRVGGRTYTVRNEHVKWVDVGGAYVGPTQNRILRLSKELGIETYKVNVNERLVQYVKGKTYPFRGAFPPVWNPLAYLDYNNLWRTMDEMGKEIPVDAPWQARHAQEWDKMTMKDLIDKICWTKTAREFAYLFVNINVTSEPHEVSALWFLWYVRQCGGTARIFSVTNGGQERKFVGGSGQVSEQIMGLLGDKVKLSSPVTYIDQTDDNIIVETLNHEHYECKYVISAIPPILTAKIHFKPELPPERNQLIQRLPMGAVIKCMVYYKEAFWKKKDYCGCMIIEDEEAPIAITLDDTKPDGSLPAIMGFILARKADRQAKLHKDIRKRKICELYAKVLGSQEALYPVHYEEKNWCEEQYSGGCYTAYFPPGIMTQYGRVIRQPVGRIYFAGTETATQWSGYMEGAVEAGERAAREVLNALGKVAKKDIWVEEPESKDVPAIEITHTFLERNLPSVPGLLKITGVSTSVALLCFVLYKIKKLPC
Experiment notes: Inhibition of MAO activity in vitro, rat brain homogenate, 5-HT substrate
Counter-ions that a name gives are not always drawn.
Task for the reader: assign each of the following molecules its reported pIC50.
Keep in mind that pIC50 stands for -log10 of concentration in molar terms.

Query: # lookup: pIC50 of C#CCN(C)C(C)Cc1cccc(OC(=O)N(C)CCCCCC)c1 (racemic)
Result: 4.70

Query: Next up: "C#CCN(C)CCc1cccc(OC(=O)N(C)CC)c1"
Result: 6.00

Query: Another molecule to look at: C#CCNC(C)Cc1cccc(OC(=O)N(C)CC)c1 (centres unmarked)
Result: 4.92

Query: Another: C#CCN(C)C(C)Cc1cccc(OC(=O)N(C)C2CCCCC2)c1 (racemic) [Compound 28, HCl]
Result: 5.77

Query: Can you handle C#CCNC(C)Cc1cccc(OC(=O)N(C)CCC)c1 (racemic) [Compound 19, HCl] next?
Result: 4.84

Query: Again, but for C#CCN(C)C(C)Cc1cccc(OC(=O)N(C)C)c1 (racemic) [Compound 20, HCl]
Result: 6.92

Query: How about "CN(C)C(=O)Oc1cccc(CCN)c1" ?
Result: 4.00

Query: Further, for "C#CCN(C)CCc1cccc(OC(=O)N(C)C)c1" ?
Result: 6.42

Query: Ok, now "CNCCc1cccc(OC(=O)N(C)C)c1"
Result: 4.30

Query: Same for C#CCNC(C)Cc1cccc(OC(=O)N(C)C)c1 (centres unmarked)
Result: 5.15

Query: Now this one: "C#CCNCCc1cccc(OC(=O)N(C)CC)c1"
Result: 5.48

Query: Would you kindly repeat that for "C#CCNCCc1cccc(OC(=O)N(C)C)c1" ?
Result: 5.60

Query: What would you report for "CCN(C)C(=O)Oc1cccc(CCN)c1" ?
Result: 3.70

Query: Next record, please: "CCN(C)C(=O)Oc1cccc(CCNC)c1"
Result: 4.60

====

Measured target: whole brain AChE (Mus musculus, UniProt P21836)
Construct: the brains rapidly removed (minus cerebellum), weighed and homogenized in 0.1M phosphate buffer pH 8.0; from tissue; host or cells: mouse brain (minus cerebellum) homogenate supernatant
Sequence (P21836 32-614): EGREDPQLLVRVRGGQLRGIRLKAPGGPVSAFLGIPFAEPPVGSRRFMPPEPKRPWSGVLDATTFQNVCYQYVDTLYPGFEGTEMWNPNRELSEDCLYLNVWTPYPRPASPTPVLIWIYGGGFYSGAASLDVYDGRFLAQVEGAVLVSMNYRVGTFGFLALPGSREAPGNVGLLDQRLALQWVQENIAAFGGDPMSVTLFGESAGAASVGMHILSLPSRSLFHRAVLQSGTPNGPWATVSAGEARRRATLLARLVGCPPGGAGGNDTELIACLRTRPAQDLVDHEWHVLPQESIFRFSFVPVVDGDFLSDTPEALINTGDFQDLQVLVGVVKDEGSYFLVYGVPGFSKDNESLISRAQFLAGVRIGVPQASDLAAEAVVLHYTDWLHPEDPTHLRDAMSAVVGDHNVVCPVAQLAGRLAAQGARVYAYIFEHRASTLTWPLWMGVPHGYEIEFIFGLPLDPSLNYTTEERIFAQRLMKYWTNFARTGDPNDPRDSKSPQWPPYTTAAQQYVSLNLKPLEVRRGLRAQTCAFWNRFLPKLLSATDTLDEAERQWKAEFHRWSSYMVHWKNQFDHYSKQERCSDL
Experiment notes: Ex vivo measurement of brain AChE inhibition after sub-cutaneous administration
Assay type: in vivo, mice
Measurement context: AChE inhibition
Experimental: Test drugs or saline were administered sub-cutaneously to male mice (Sabra strain, 28-35g). At least 4-5 mice were used per dose and a minimum of 3 doses per drug were tested. […] AChE activity measured as described above. The % inhibition of whole brain AChE by each dose of drug was calculated by comparison with enzyme activity from 3 saline treated control mice run at the same time.
Value kind: Time to return to 50% of peak t (min)
Field format: number, assumed min, no unit text.

Query: Look at this molecule and give its reported Time to return to 50% of peak t. CNCCc1cccc(OC(=O)N(C)C)c1 [Compound 3]
Result: 30

Query: Also C#CCNC(C)Cc1cccc(OC(=O)N(C)CC)c1 (stereo not drawn) [Compound 17] , if possible.
Result: 120

Query: Now the molecule C#CCNCCc1cccc(OC(=O)N(C)CC)c1 [Compound 13]
Result: 120

Query: Follow-up item: C#CCN(C)CCc1cccc(OC(=O)N(C)C)c1 [Compound 12]
Result: 120

Query: What about this molecule? C#CCNC(C)Cc1cccc(OC(=O)N(C)C)c1 (stereo not drawn) [Compound 16]
Result: 70

Query: How about C#CCNCCc1cccc(OC(=O)N(C)C)c1 [Compound 11] ?
Result: 70

====

Tested on: MAO-A
Experiment notes: Inhibition of MAO activity ex vivo (brain tissue), 5-HT substrate
Type: in vivo, mice
Measurement context: mouse brain tissue
Where a name gives a salt, the structure may show the parent alone.
Value kind: MAO-A Inhibition Ex vivo ED50

Query: Report MAO-A Inhibition Ex vivo ED50 for C#CC(C)NCCc1cccc(OC(=O)N(C)C)c1 (stereo not drawn) please.
Result: >>12.5 µmoles/kg

Query: Now the molecule C#CCNC(C)Cc1cccc(OC(=O)N(C)CCC)c1 (racemic) [Compound 19, HCl]
Result: >70 µmol/kg

Query: Then this molecule: C#CCNC(C)Cc1cccc(OC(=O)N(C)CC)c1 (stereo not drawn)
Result: >40 µmol/kg

Query: Next record, please: C#CC(C)NCCc1cccc(OC(=O)N(C)CC)c1 (stereo not drawn)
Result: >>270 µmoles/kg

Query: Further, for C#CCN(C)C(C)Cc1cccc(OC(=O)N(C)CCCCCC)c1 (racemic) ?
Result: >430 µmol/kg

Query: Would you kindly repeat that for C#CCNC(C)Cc1cccc(OC(=O)N(C)C)c1 (stereo not drawn) ?
Result: >20 µmol/kg

====

Test system: MAO-B
Experiment notes: Inhibition of MAO activity ex vivo (brain tissue), PEA substrate
Assay type: in vivo, mice
Measurement context: mouse brain tissue
Value kind: MAO-B Inhibition Ex vivo ED50

Query: Please give the measured MAO-B Inhibition Ex vivo ED50 for this molecule: C#CC(C)NCCc1cccc(OC(=O)N(C)C)c1 (centres unmarked)
Result: >>12.5 µmoles/kg

Query: Consider next the molecule C#CCNC(C)Cc1cccc(OC(=O)N(C)C)c1 (centres unmarked) in the same way.
Result: >20 µmol/kg

Query: Also "C#CCNCCc1cccc(OC(=O)N(C)C)c1" ?
Result: >>30 µmoles/kg

Query: Now the same for "CCN(C)C(=O)Oc1cccc(CCNC)c1"
Result: >>160 µmoles/kg

Query: Moving on to C#CC(C)NCCc1cccc(OC(=O)N(C)CC)c1 (centres unmarked)
Result: >>270 µmoles/kg

====

Measured target: whole brain AChE (Mus musculus, UniProt P21836)
Construct: the brains rapidly removed (minus cerebellum), weighed and homogenized in 0.1M phosphate buffer pH 8.0; from tissue; host or cells: mouse brain (minus cerebellum) homogenate supernatant
Experiment notes: Ex vivo measurement of brain AChE inhibition after sub-cutaneous administration
Format: in vivo, mice
Measurement context: AChE inhibition
Counter-ions that a name gives are not always drawn.
Hi there, I'd appreciate the recorded Time to peak activity t for every entry that follows.

Query: For the compound "C#CCNCCc1cccc(OC(=O)N(C)CC)c1" , what Time to peak activity t is on record?
Result: 30 to 90 min

Query: Could you do the same for "C#CCN(C)CCc1cccc(OC(=O)N(C)C)c1" , please?
Result: 15 to 30 min

Query: Another compound: C#CCNC(C)Cc1cccc(OC(=O)N(C)CC)c1 (centres unmarked)
Result: 30 to 60 min

Query: Try this compound too: C#CCNC(C)Cc1cccc(OC(=O)N(C)CCC)c1 (racemic) [Compound 19, HCl]
Result: 30 to 60 min

Query: Now give it for "CN(C)CCc1cccc(OC(=O)N(C)C)c1" too.
Result: 15 to 30 min
